Test system: chloroquine-resistant W2 strain of P. falciparum
Experiment: In vitro antiplasmodial assay, (G-3H) hypoxanthine incorporation, W2 strain
Assay type: cell-based
Conditions: Plasmodium falciparum, pure compounds
endpoint.label: pIC50
Please report pIC50 as the negative decimal logarithm of the molar concentration, giving only the number.

{"compound": "COC(=O)C[C@H]1C(C)(C)[C@H](O)[C@@H]2CC3=C4CC(=O)O[C@@H](c5ccoc5)[C@]4(C)CC[C@@H]3[C@@]1(C)C2=O [Compound 8, proceranolide]", "study.system": "chloroquine-resistant W2 strain of P. falciparum", "endpoint.label": "pIC50", "value.reported": 3.82}
{"compound": "CC1(C)CC[C@]2(C(=O)O)CC[C@]3(C)C(=CC[C@@H]4[C@@]5(C)CC[C@@H](O)C(C)(C)[C@@H]5CC[C@]43C)C2C1 (stereo partly drawn) [Compound 3, 3-epi-oleanolic acid]", "study.system": "chloroquine-resistant W2 strain of P. falciparum", "endpoint.label": "pIC50", "value.reported": 3.75}
{"compound": "O=c1c(O[C@@H]2O[C@H](CO)[C@@H](O)[C@H](O)[C@H]2O)c(-c2ccc(O)cc2)oc2cc(O)cc(O)c12 [Compound 9, kaempferol-3-O-β-D-glucopyranoside]", "study.system": "chloroquine-resistant W2 strain of P. falciparum", "endpoint.label": "pIC50", "value.reported": 3.98}
{"compound": "CC1(C)CC[C@]2(C(=O)O)CC[C@]3(C)C(=CC[C@@H]4[C@@]5(C)CCC(=O)C(C)(C)[C@@H]5CC[C@]43C)[C@@H]2C1", "study.system": "chloroquine-resistant W2 strain of P. falciparum", "endpoint.label": "pIC50", "value.reported": 4.12}

Now let's try a different one.
In: What does the record list as pIC50 for CC(=CCCC=C(C)CCC=C(C)CCC(O)C(C)(O)CO)CCC=C(C)CCC(O)C(C)(C)O (stereo not drawn) ?
Out: 4.17
